# pKd values compiled below
# testedSystem: T1, cynomolgus DKK1 (cynomolgus monkey (Macaca fascicularis), UniProt A0A7N9IE82 32-266)
# T1 construct: also called cyno DKK1; monkey DKK1 (Novartis)
# T1 sequence: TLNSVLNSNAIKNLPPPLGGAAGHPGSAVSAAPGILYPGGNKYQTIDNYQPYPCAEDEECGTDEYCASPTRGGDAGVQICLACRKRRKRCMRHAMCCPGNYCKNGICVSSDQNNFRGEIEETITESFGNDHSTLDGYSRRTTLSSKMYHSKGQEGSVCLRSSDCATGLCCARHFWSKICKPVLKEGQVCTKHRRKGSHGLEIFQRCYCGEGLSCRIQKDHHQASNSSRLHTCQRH
# testDetails: SPR (Biacore), DKK1 immobilised on CM5 chip, Fab as analyte
pKd: −log10 of the molar value.
metricName: pKd

{"binder": "MOR04470 (Fab, V domains shown, Fab with C-terminal FLAG and 6xHis tags) VH: QVQLVESGGGLVQPGGSLRLSCAASGFTFSSYWMSWVRQAPGKGLEWVSVISSDSSSTYYADSVKGRFTISRDNSKNTLYLQMNSLRAEDTAVYYCARHGIDFDHWGQGTLVTVSS VL: DIALTQPASVSGSPGQSITISCTGTSSDLGGYNYVSWYQQHPGKAPKLMIYDVNNRPSGVSNRFSGSKSGNTASLTISGLQAEDEADYYCQSYASGNTKVVFGGGTKLTVLG", "metricName": "pKd", "quantitativeResult": 8.77}
{"binder": "MOR04455 (Fab, V domains shown, Fab with C-terminal FLAG and 6xHis tags) VH: QVQLVESGGGLVQPGGSLRLSCAASGFTFSSYGMSWVRQAPGKGLEWVSGISGSGSYTYYADSVKGRFTISRDNSKNTLYLQMNSLRAEDTAVYYCARHYMDHWGQGTLVTVSS VL: DIQMTQSPSSLSASVGDRVTITCRASQDISNYLHWYQQKPGKAPKLLIYGASNLQSGVPSRFSGSGSGTDFTLTISSLQPEDFAVYYCQQYDSIPMTFGQGTKVEIKR", "metricName": "pKd", "quantitativeResult": 8.82}
{"binder": "MOR04461 (Fab, V domains shown, Fab with C-terminal FLAG and 6xHis tags) VH: QVQLVESGGGLVQPGGSLRLSCAASGFTFSSYWMSWVRQAPGKGLEWVSGISYSGSNTHYADSVKGRFTISRDNSKNTLYLQMNSLRAEDTAVYYCARMGIDLDYWGQGTLVTVSS VL: DIALTQPASVSGSPGQSITISCTGTSSDVGGFNYVSWYQQHPGKAPKLMIHDGSNRPSGVSNRFSGSKSGNTASLTISGLQAEDEADYYCSTWDMTVDFVFGGGTKLTVLG", "metricName": "pKd", "quantitativeResult": 8.14}
{"binder": "MOR04516 (Fab, V domains shown, Fab with C-terminal FLAG and 6xHis tags; also called MOR4516) VH: QVQLVQSGAEVKKPGESLKISCKGSGYSFTNYYIGWVRQMPGKGLEWMGIIYPTDSYTNYSPSFQGQVTISADKSISTAYLQWSSLKASDTAMYYCARGIPFRMRGFDYWGQGTLVTVSS VL: DIVLTQPPSVSGAPGQRVTISCSGSSSNIGSSFVNWYQQLPGTAPKLLIGNNSNRPSGVPDRFSGSKSGTSASLAITGLQSEDEADYYCASFDMGSPNVVFGGGTKLTVLG", "metricName": "pKd", "quantitativeResult": 8.72}
{"binder": "MOR04456 (Fab, V domains shown, Fab with C-terminal FLAG and 6xHis tags) VH: QVQLVESGGGLVQPGGSLRLSCAASGFTFNNYGMTWVRQAPGKGLEWVSGISGSGSYTYYADSVKGRFTISRDNSKNTLYLQMNSLRAEDTAVYYCARTIYMDYWGQGTLVTVSS VL: DIVLTQSPATLSLSPGERATLSCRASQNLFSPYLAWYQQKPGQAPRLLIYGASNRATGVPARFSGSGSGTDFTLTISSLEPEDFATYYCQQYGDEPITFGQGTKVEIKR", "metricName": "pKd", "quantitativeResult": 8.09}
{"binder": "MOR04454 (Fab, V domains shown, Fab with C-terminal FLAG and 6xHis tags) VH: QVQLVESGGGLVQPGGSLRLSCAASGFTFSNYGLHWVRQAPGKGLEWVSSISYYGSSTYYADSVKGRFTISRDNSKNTLYLQMNSLRAEDTAVYYCARDGSHMDKPPGYVFAFWGQGTLVTVSS VL: DIQMTQSPSSLSASVGDRVTITCRASQGIKNYLNWYQQKPGKAPKLLIGAASSLQSGVPSRFSGSGSGTDFTLTISSLQPEDFATYYCLQYYGMPPTFGQGTKVEIKR", "metricName": "pKd", "quantitativeResult": 8.57}
